- Method: Cmax in F344 rat spleen at 5 mg/kg, iv administered as single bolus dose after 30 min by HPLC method
- Assay type: ADME, organism-based
- Parameters: dose 5 mg/kg, route intravenous
Property: Cmax (ng/g)
Write the value in ng/g as a bare number.

stdin: Look up Cmax for this compound: CCCCCOc1ccc(-c2ccc(-c3ccc([14C](=O)N[C@H]4C[C@@H](O)[C@@H](O)NC(=O)[C@@H]5[C@@H](O)[C@@H](C)CN5C(=O)[C@H]([C@@H](C)O)NC(=O)[C@H]([C@H](O)[C@@H](O)c5ccc(O)cc5)NC(=O)[C@@H]5C[C@@H](O)CN5C(=O)[C@H]([C@@H](C)O)NC4=O)cc3)cc2)cc1 [14C-ANIDULAFUNGIN]
stdout: 24200
